B1: TPR 5TU (parent)
chain: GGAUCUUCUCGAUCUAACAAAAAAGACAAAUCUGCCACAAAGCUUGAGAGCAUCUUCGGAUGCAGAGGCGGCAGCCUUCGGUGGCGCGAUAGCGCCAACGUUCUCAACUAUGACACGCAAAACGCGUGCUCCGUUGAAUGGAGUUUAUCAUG

- Variants of: B1
- Procedure text: polymerase ribozyme fitness, log enrichment relative to wild type (log ratio); higher = more active; in vitro selection for triplet polymerase activity
Fewer inactive variants are shown than the library holds.
Would you please tag the item satisfied when its polymerase ribozyme fitness (log ratio) is -2 or above, and not satisfied when it is below?

Is polymerase ribozyme fitness (log ratio) for G48A A52G G83U U101A C131A U148A at or above -2?
not satisfied

Is polymerase ribozyme fitness (log ratio) for C32U U33G C38U C54U U77A A107U at or above -2?
not satisfied

Is polymerase ribozyme fitness (log ratio) for G50A A91U C99U C103G C108U A137C G141C at or above -2?
not satisfied

Is polymerase ribozyme fitness (log ratio) for U33A G58A C96A G152U at or above -2?
not satisfied

Is polymerase ribozyme fitness (log ratio) for G59U at or above -2?
satisfied

Is polymerase ribozyme fitness (log ratio) for C38U A41G G58A at or above -2?
satisfied

Is polymerase ribozyme fitness (log ratio) for G92A U127G at or above -2?
not satisfied

Is polymerase ribozyme fitness (log ratio) for C18A A22C A23U A37C C72U G88A C125U U146G at or above -2?
not satisfied

Is polymerase ribozyme fitness (log ratio) for A89U A97G U134A G141C at or above -2?
not satisfied

Is polymerase ribozyme fitness (log ratio) for A41C C85U A122U G126C at or above -2?
satisfied

Is polymerase ribozyme fitness (log ratio) for A12U C38G G50A A66C at or above -2?
not satisfied

Is polymerase ribozyme fitness (log ratio) for U15G C27U G83A A121C at or above -2?
not satisfied

Is polymerase ribozyme fitness (log ratio) for U44A U53A G58U G83U U102G A122U at or above -2?
not satisfied

Is polymerase ribozyme fitness (log ratio) for A12U G42A C85U C99G at or above -2?
not satisfied

Is polymerase ribozyme fitness (log ratio) for G25C C75A U104A A119U U134G U135A at or above -2?
not satisfied

Is polymerase ribozyme fitness (log ratio) for C10G U15G A23C G62C A97C C125U at or above -2?
not satisfied

Is polymerase ribozyme fitness (log ratio) for A23G C38U U61A at or above -2?
not satisfied

Is polymerase ribozyme fitness (log ratio) for A30U C95U at or above -2?
not satisfied

Is polymerase ribozyme fitness (log ratio) for U31C C87A at or above -2?
not satisfied

Is polymerase ribozyme fitness (log ratio) for G71U G83U at or above -2?
not satisfied

Is polymerase ribozyme fitness (log ratio) for A16U G92U at or above -2?
not satisfied

Is polymerase ribozyme fitness (log ratio) for C32G A47C G74C C116U C132A A138U at or above -2?
not satisfied

Is polymerase ribozyme fitness (log ratio) for C14A U90G A137C at or above -2?
not satisfied

Is polymerase ribozyme fitness (log ratio) for C51U U134A at or above -2?
not satisfied

Is polymerase ribozyme fitness (log ratio) for A40U G59C at or above -2?
satisfied

Is polymerase ribozyme fitness (log ratio) for U53A G83C at or above -2?
not satisfied

Is polymerase ribozyme fitness (log ratio) for G25C C76U C79G C93A C118U at or above -2?
not satisfied

Is polymerase ribozyme fitness (log ratio) for A23G G92U at or above -2?
not satisfied

Is polymerase ribozyme fitness (log ratio) for C95U A150G at or above -2?
not satisfied

Is polymerase ribozyme fitness (log ratio) for G50C G81C C93G C95U A110C at or above -2?
not satisfied

Is polymerase ribozyme fitness (log ratio) for A49C G67A G92U A138C at or above -2?
not satisfied

Is polymerase ribozyme fitness (log ratio) for A17U G100U U134A U145G at or above -2?
not satisfied

Is polymerase ribozyme fitness (log ratio) for C85A C118A at or above -2?
satisfied

Is polymerase ribozyme fitness (log ratio) for U4A A29G U61A G94U G126U G133U U151G at or above -2?
not satisfied

Is polymerase ribozyme fitness (log ratio) for A19C A40U G46A at or above -2?
satisfied

Is polymerase ribozyme fitness (log ratio) for C18G A40U at or above -2?
satisfied

Is polymerase ribozyme fitness (log ratio) for A29U G68A G83A C103G at or above -2?
not satisfied

Is polymerase ribozyme fitness (log ratio) for C35A G65U G83A G140U at or above -2?
not satisfied

Is polymerase ribozyme fitness (log ratio) for A24U C32G U135G G143A at or above -2?
not satisfied

Is polymerase ribozyme fitness (log ratio) for G48U A142U at or above -2?
not satisfied

Is polymerase ribozyme fitness (log ratio) for A3G C38A G124C U134G G136U U146G at or above -2?
not satisfied

Is polymerase ribozyme fitness (log ratio) for A16G C54U at or above -2?
satisfied

Is polymerase ribozyme fitness (log ratio) for G65A G67C G92A at or above -2?
not satisfied

Is polymerase ribozyme fitness (log ratio) for C57U G83U A137G at or above -2?
satisfied

Is polymerase ribozyme fitness (log ratio) for C14U A122G at or above -2?
satisfied
